- studySystem: full-length beta-Catenin (Uniprot ID P35222) (Homo sapiens (Human)) (UniProt P35222)
- protocol: fluorescence polarization competition; full-length beta-catenin, competitor 5FAM-TCF4(10-53) probe
Starred links: 1 amine or outer side, 2 acyl side, 3 side chain; linkers in the order of their positions; H or OH if unused. Positions of bridges follow the written chain, without caps; N, C: chain ends. Non-standard residues stand in square brackets, D forms with d. Primed or numbered codes have the meaning given here. PyrS2″ = (S)-3-amino-1-((pent-4-en-1-yloxy)carbonyl)pyrrolidine-3-carboxylic acid (stapling residue), C=CCCCOC(=O)N1CC[C@@](N[*:1])(C(=O)[*:2])C1; B5(4) = 2,2-bis(4-pentenyl)glycine = 2-amino-2-(pent-4-en-1-yl)hept-6-enoic acid (stitching residue), C=CCCCC(CCCC=C)(N[*:1])C(=O)[*:2]; B5(5) = 2,2-bis(4-pentenyl)glycine, 2-amino-2-(pent-4-en-1-yl)hept-6-enoic acid (stitching residue), C=CCCCC(CCCC=C)(N[*:1])C(=O)[*:2]; PyrS2 = (S)-3-amino-1-((pent-4-en-1-yloxy)carbonyl)pyrrolidine-3-carboxylic acid, C=CCCCOC(=O)N1CC[C@@](N[*:1])(C(=O)[*:2])C1; Phe(2-Cl) = N[C@@H](Cc1ccccc1Cl)C(=O)O; Bta = N[C@@H](Cc1csc2ccccc12)C(=O)O; αAllylPro = C=CC[C@@]1(C(=O)O)CCCN1; tBuAla = CC(C)(C)C[C@H](N)C(=O)O; 3Thi = N[C@@H](Cc1ccsc1)C(=O)O; Cha = N[C@@H](CC1CCCCC1)C(=O)O; S8 = C=CCCCCCC[C@](C)(N)C(=O)O; hSer = N[C@@H](CCO)C(=O)O; Nle = CCCC[C@H](N)C(=O)O; Aib = CC(C)(N)C(=O)O
assayReadout: IC50 (nM)

>  <binder>
Ac-[αAllylPro]D[Cha][B5(4)]DTAAFT[PyrS2″][Phe(2-Cl)][Bta]Q-NH2 (staple 1-4, 4-11) [I-1175]

>  <unitsSymbol>
nM

>  <readoutValue>
24

$$$$

I = Ac-[αAllylPro]D[tBuAla][B5(4)]DSAAFL[PyrS2″][3Thi][Bta]Q-NH2 (staple 1-4, 4-11) [I-1443]
II = Ac-[αAllylPro][hSer][tBuAla][B5(5)]DHAAFT[PyrS2″]F[Bta]Q-NH2 (staple 1-4, 4-11) [I-2438]
III = Ac-[αAllylPro]D[tBuAla][B5(5)]NT[Aib]AFT[PyrS2][3Thi][Bta]Q-NH2 (staple 1-4, 4-11) [I-2409]
IV = Ac-[αAllylPro]DI[B5(4)]DE[Nle]AFQ[S8]F[Bta]Q-NH2 (staple 1-4, 4-11) [I-657]
In: Exam item: list the entries in increasing order of IC50. // ordering of labels required in reply
Out: I, IV, III, II
